System: Staphylococcus aureus
METHOD_NOTES: Antibiofilm activity against Staphylococcus aureus ATCC 35556 assessed as inhibition of biofilm formation at 50 ug/ml
Assay type: functional
METRIC: inhibition at 50 µg/mL (%)
Express the result in % but write the number alone.

Request: Item: O=C(CCN1C(=O)c2ccccc2C1=O)c1cnc2ncccn12 Test system: Staphylococcus aureus Read-out: inhibition at 50 µg/mL Value: ?
Result: 6.92

Request: Item: Nc1ncc(C(=O)CCNC(=O)c2ccc[nH]2)[nH]1 Test system: Staphylococcus aureus Read-out: inhibition at 50 µg/mL Value: ?
Result: 98.1

Request: Item: O=C(NCC(=O)c1cnc2ncccn12)c1ccc[nH]1 Test system: Staphylococcus aureus Read-out: inhibition at 50 µg/mL Value: ?
Result: -5.94

Request: Item: O=C(NCCC(O)c1cnc2ncccn12)c1cc(Br)c[nH]1 (configuration not stated) Test system: Staphylococcus aureus Read-out: inhibition at 50 µg/mL Value: ?
Result: 2.2

Request: Item: Cl.Cl.NCCC(=O)c1cnc2ncccn12 Test system: Staphylococcus aureus Read-out: inhibition at 50 µg/mL Value: ?
Result: 57.1

Request: Item: O=C(NC/C=C/c1cnc2ncccn12)c1ccc[nH]1 Test system: Staphylococcus aureus Read-out: inhibition at 50 µg/mL Value: ?
Result: 16.4

Request: Item: O=C(NC/C=C/c1cnc2ncccn12)c1cc(Br)c(Br)[nH]1 Test system: Staphylococcus aureus Read-out: inhibition at 50 µg/mL Value: ?
Result: -0.4

Request: Item: O=C(NCC(=O)c1cnc2ncccn12)c1cc(Br)c(Br)[nH]1 Test system: Staphylococcus aureus Read-out: inhibition at 50 µg/mL Value: ?
Result: -5.8

Request: Item: O=C(NCCC(O)c1cnc2ncccn12)c1cc(Br)c(Br)[nH]1 (configuration not stated) Test system: Staphylococcus aureus Read-out: inhibition at 50 µg/mL Value: ?
Result: -2.2

Request: Item: O=C(NC/C=C/c1cnc2ncccn12)c1cc(Br)c[nH]1 Test system: Staphylococcus aureus Read-out: inhibition at 50 µg/mL Value: ?
Result: -5.5

Request: Item: O=C(NCC(=O)c1cnc2ncccn12)c1cc(Br)c[nH]1 Test system: Staphylococcus aureus Read-out: inhibition at 50 µg/mL Value: ?
Result: -8.17

Request: Item: O=C(NCCC(=O)c1cnc2ncccn12)c1cc(Br)c(Br)[nH]1 Test system: Staphylococcus aureus Read-out: inhibition at 50 µg/mL Value: ?
Result: -4.41

Recorded values, source ChEMBL document CHEMBL3132815.
